B1: PHTF1 (parent)
chain: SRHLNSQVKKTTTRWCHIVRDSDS

- Variants of: B1
- Assay Overview: protein stability index of a GFP-peptide fusion (GPS, HEK-293T) (PSI 1-6); higher = more stable;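 also: lentivirally expressed fusions sorted by FACS into six bins by GFP to DsRed ratio, PSI derived from sequencing read proportions per bin multiplied by bin number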
- Experimental Context: c terminus: a fixed tail appended
Readout Label: protein stability index
I'd appreciate a reply containing only the number, no unit.

| Residue Change | Assay Result |
| --- | --- |
| S1M | 2.52 |

Note protein stability index for the variant shown: K10H
2.29

Note protein stability index for the variant shown: V8A
2.26
